Data origin, for the record: patent US20260062412A1

# Experimental system: MYT1 protein (Homo sapiens (Human), UniProt Q99640)
# Sequence (Q99640 whole entry): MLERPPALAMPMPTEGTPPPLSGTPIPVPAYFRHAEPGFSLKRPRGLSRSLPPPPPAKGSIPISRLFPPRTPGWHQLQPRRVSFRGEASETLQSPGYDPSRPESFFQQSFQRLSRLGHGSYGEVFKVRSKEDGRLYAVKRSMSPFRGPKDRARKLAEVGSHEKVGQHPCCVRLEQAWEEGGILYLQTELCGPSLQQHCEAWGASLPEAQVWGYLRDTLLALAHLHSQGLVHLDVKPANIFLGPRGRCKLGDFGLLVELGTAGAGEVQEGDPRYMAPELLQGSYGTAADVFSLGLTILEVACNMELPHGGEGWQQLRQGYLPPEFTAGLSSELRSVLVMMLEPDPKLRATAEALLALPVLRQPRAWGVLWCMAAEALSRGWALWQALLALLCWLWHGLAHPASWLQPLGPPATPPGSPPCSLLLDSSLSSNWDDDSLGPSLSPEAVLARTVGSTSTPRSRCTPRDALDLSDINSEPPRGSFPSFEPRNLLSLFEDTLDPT
# Measurement description: Test for binding to ATP binding site of MYT1 (Kinase Tracer 178 / Eu-Anti-GST antibody TR-FRET)
# Assay context: ATP binding site of MYT1, 30 minutes at room temperature
Rule: IC50 below 3 nM gives Satisfied. Equal to or above 3 nM gives Not satisfied.

Chemical structure: Nc1c(-c2cc(F)c(Cl)c3[nH]ncc23)c2cc(Br)c3ncccc3c2[nH]c1=O
Qualitative label: Satisfied
--
Chemical structure: Nc1c(-c2ccc(F)c3[nH]ncc23)c2cc(C3CC3)c3cnsc3c2[nH]c1=O
Qualitative label: Satisfied
--
Chemical structure: Nc1c(-c2ccc(F)c3[nH]ncc23)c2cc(N3CCOCC3)c3cccnc3c2[nH]c1=O
Qualitative label: Not satisfied
--
Chemical structure: Cc1cc2c(-c3nccc4[nH]ncc34)c(N)c(=O)[nH]c2c2cccnc12
Qualitative label: Not satisfied
--
Chemical structure: Nc1c(-c2ccc(F)c3[nH]ncc23)c2cc(O[C@@H]3CCCOC3)c3ncccc3c2[nH]c1=O
Qualitative label: Satisfied

* * *

# Experimental system: MYT1 protein (Homo sapiens (Human))
# Measurement description: Test for binding to ATP binding site of MYT1 (Kinase Tracer 178 / Eu-Anti-GST antibody TR-FRET)
# Assay context: ATP binding site of MYT1, 30 minutes at room temperature
As shown below, each of these compounds has a reported IC50 value.
Metric name: IC50

Compound: Nc1c(-c2ccc(F)c3[nH]ncc23)c2cc(C3CCN(C4CCC4)CC3)c3cccnc3c2[nH]c1=O [Compound D24]
Experimental system: MYT1 protein (Homo sapiens (Human))
Metric name: IC50
Value reported: 6.9 nM

Compound: Nc1c(-c2cc(F)c(F)c3[nH]ncc23)c2cc(OCC3(F)CC3)c3ncccc3c2[nH]c1=O [Compound C71]
Experimental system: MYT1 protein (Homo sapiens (Human))
Metric name: IC50
Value reported: 1.7 nM

Compound: Nc1c(N2CCCC(CO)C2)c2cc(Br)ccc2[nH]c1=O (centres unmarked) [Compound A71, 2,2,2-trifluoroacetate]
Experimental system: MYT1 protein (Homo sapiens (Human))
Metric name: IC50
Value reported: 1400 nM

Compound: Nc1c(-c2ccc(F)c3[nH]ncc23)c2cc(OC3CCC3)c3ncccc3c2[nH]c1=O [Compound C18]
Experimental system: MYT1 protein (Homo sapiens (Human))
Metric name: IC50
Value reported: 2 nM

Compound: CC(C)Oc1cc2c(-c3cc(F)c(F)c4[nH]ncc34)c(N)c(=O)[nH]c2c2cccnc12 [Compound C69]
Experimental system: MYT1 protein (Homo sapiens (Human))
Metric name: IC50
Value reported: 2 nM
